Could you please report measured growth inhibition for the items listed next?
Test: NCI Yeast Anticancer Drug Screen. Data for the bub3 strain (AID 167)
Conditions: S. cerevisiae bub3 mutant strain, at 50.0 µM, hits give high values
Compounds without any hit were thinned out: in the full panel of roughly 79,000, 15% have a hit.
Field: numeric (%). Do not append units.

I have this molecule here, COC(=O)Nc1nc2ccc(C(=O)c3ccccc3)cc2[nH]1 , and I need its recorded growth inhibition.
71.5

Would you kindly repeat that for CCOc1ccccc1-c1nc2c(s1)C(=O)c1ccccc1C2=O ?
92.3

Okay, and Cc1cccc(C[P+](c2ccccc2)(c2ccccc2)c2ccccc2)c1 ?
92.2

Please give the result for O=C1Oc2ccccc2C1c1ccccc1 (stereo not drawn) too.
34.5

Now try CC(=O)OCC(=O)[C@@]1(O)CC[C@H]2[C@@H]3CCC4=CC(=O)C=C[C@]4(C)[C@@]3(F)[C@@H](O)C[C@@]21C .
17.6

Try Cc1c(CC=C(c2ccccc2)c2ccccc2)cccc1C[N+](C)(C)C next.
80.2

Now the molecule C/C(=N\NC(=S)NCc1ccccc1)c1nccnc1C
83.3

Query CCOC(=O)c1c(C)[nH]c(CO)c1C next
34

Also need Cc1cc([N+](=O)[O-])cc(Cl)c1O , thanks.
82.3

Next molecule up: S=c1[nH]c2ccc(Cl)cc2s1
42

Next entry: C=C(CCC(C)C1CCC2(C)C3=C(CC(O)C12C)C1(C)CCC(O)C(C)(C)C1CC3)C(C)C(=O)O (stereo not drawn)
80.9

Same question for O=C1Sc2sc(=S)sc2SC1c1ccccc1 (stereo not drawn) please.
32.6

Next up: CCC1CCC(CC)C1=O (stereo not drawn)
97.4

Also C[CH2][Sn]([CH2]C)([O]C(=O)c1cccc(OC)c1)[O][Sn]([CH2]C)([CH2]C)[O]C(=O)c1cccc(OC)c1 ?
37.5

Now this one: CSc1cc(C(=O)O)nc(N)n1
-17.1

Then what about the molecule COc1ccc(C2=C(Cl)C(=O)N(c3ccc(OC)cc3OC)C(=O)C2(Cl)Cl)cc1 ?
56.5

Again, but for OCC(CO)C1c2cccc3ccc4cccc1c4c23
53.5

Could you do the same for CC1=NN(c2nc(N)nc(C(C)Sc3cc(Cl)c(C)cc3S(N)(=O)=O)n2)C(C)(C)C1 (stereo not drawn) , please?
-17.1

Same lookup for C=CCOc1ccc(N=NC(C#N)C#N)cc1 , please.
97.8

Input CS(=O)(=O)c1nc(Cl)c(Cl)c(C#N)c1Cl
99.2

Then what about the molecule C[C-](O)O.O/C(=C\[C-](O)c1ccccc1)c1ccccc1.O/C(=C\[C-](O)c1ccccc1)c1ccccc1.[Nd+3] (stereo not drawn) ?
90.2

Next record, please: Cc1ccc2c(c1)[n+]([O-])c(N)c(C#N)[n+]2[O-]
29.4

CCOc1ccc(-c2nc3ccc(-c4nc5ccc(N6CCN(C)CC6)cc5[nH]4)cc3[nH]2)cc1 ?
89.1

* * *

Test: NCI Yeast Anticancer Drug Screen. Data for the mlh1 rad18 strain (AID 175)
Conditions: S. cerevisiae mlh1 rad18 strain growth inhibition; at 50.0 µM
The panel holds about 79,000 compounds, 15% with a hit somewhere; the sample as a whole holds those more often. Calls of active or inactive are those of the source. Rule as the data show it: active = growth inhibition above about 70%; inactive = the rest.
Allowed answers: y = active, n = inactive

Outcome logged for c1ccc2c(c1)Nc1ccccc1[P+]21c2ccccc2Nc2ccccc21 in this assay:
y

Let us now turn to CCCCCCCCCCCCCCCCN(CC)CC
y

// same read-out, input: COCC1C(=O)c2cc3c(cc2C12C=CC1(C=C2)OCCO1)OCO3 (stereo not drawn)
y

How about CCCCCCCCCCCC(=O)N1CCCC1 ?
y

Please do the same for C#CC(C)(C)Nc1c2ccccc2nc2ccccc12 as well.
y

Next record, please: COc1cc(N=Nc2cccc(S(N)(=O)=O)c2)c2ccccc2c1N
y

# repeat for COc1ccc(CC[N+]2(C)COc3cc4oc(=O)cc(C)c4cc3C2)cc1OC (stereo not drawn)
n

Can you handle COC(=O)C([NH-])c1ccccc1.COC(=O)C([NH-])c1ccccc1.[Cl][Pt+2][Cl] (stereo not drawn) next?
y

Also O=[N+]([O-])c1cccc(S(=O)(=O)N/N=C/c2cc(I)cc([N+](=O)[O-])c2O)c1 ?
n

Next up: O=C(O)CCCc1ccc2c(c1Br)C=CC2
y

Also check c1cc[c]([Sn]([S]c2cccc3cccnc23)([S]c2cccc3cccnc23)[c]2ccccc2)cc1
y

Likewise for CCOC(=O)C(NC(=O)C(CO)n1c(-c2ccccc2)c(-c2ccccc2)oc1=O)C(=O)OCC (stereo not drawn) ?
n

Another compound to look at: C/C=C/CC(C/C=C/C)C1CC[N-]CC1.C/C=C/CC(C/C=C/C)C1CC[N-]CC1.[Cl][Pt+2]([Cl])([Cl])[Cl]
y

Consider next the compound Cc1ccc2c(c1)CC1(C2)Cc2ccc(C)cc2C1=O (stereo not drawn) in the same way.
n

Request: O=C(O)c1ccccc1Cc1ccc2c(c1)Cc1ccccc1-2
y

Ok, now C=C1C(=O)OC2CC1C(O)C/C(C)=C/CC/C(C)=C/C(O)CC2C (stereo not drawn)
y

Same for CCCCCCCC/C=C1\CCC(CN(C)C)C1=O (stereo not drawn)
y

Check C=C1C[C@@]2(OC)OCC[C@H]3C(C)=CCC(C1=O)[C@]32C(=O)OC (stereo partly drawn) too.
y

How about this compound: C=C(c1ccccc1)[N+](=O)[O-]
y

Do the same for Cc1c[n+](=O)c2ccccc2n1[O-] please
n

And what about the compound CCCCNCCCCCCCCCCCl ?
y

Then what about the compound Nc1ccc(Cc2ccc(N)cc2[N+](=O)[O-])c([N+](=O)[O-])c1 ?
n

Please give the result for CN(C)c1nc(NNS(=O)(=O)c2ccc(N)cc2)nc(N(C)C)n1 too.
n
